assay.system: CDK12/CycK complex (Homo sapiens)
Sequence (Q9NYV4 whole entry, species assumed): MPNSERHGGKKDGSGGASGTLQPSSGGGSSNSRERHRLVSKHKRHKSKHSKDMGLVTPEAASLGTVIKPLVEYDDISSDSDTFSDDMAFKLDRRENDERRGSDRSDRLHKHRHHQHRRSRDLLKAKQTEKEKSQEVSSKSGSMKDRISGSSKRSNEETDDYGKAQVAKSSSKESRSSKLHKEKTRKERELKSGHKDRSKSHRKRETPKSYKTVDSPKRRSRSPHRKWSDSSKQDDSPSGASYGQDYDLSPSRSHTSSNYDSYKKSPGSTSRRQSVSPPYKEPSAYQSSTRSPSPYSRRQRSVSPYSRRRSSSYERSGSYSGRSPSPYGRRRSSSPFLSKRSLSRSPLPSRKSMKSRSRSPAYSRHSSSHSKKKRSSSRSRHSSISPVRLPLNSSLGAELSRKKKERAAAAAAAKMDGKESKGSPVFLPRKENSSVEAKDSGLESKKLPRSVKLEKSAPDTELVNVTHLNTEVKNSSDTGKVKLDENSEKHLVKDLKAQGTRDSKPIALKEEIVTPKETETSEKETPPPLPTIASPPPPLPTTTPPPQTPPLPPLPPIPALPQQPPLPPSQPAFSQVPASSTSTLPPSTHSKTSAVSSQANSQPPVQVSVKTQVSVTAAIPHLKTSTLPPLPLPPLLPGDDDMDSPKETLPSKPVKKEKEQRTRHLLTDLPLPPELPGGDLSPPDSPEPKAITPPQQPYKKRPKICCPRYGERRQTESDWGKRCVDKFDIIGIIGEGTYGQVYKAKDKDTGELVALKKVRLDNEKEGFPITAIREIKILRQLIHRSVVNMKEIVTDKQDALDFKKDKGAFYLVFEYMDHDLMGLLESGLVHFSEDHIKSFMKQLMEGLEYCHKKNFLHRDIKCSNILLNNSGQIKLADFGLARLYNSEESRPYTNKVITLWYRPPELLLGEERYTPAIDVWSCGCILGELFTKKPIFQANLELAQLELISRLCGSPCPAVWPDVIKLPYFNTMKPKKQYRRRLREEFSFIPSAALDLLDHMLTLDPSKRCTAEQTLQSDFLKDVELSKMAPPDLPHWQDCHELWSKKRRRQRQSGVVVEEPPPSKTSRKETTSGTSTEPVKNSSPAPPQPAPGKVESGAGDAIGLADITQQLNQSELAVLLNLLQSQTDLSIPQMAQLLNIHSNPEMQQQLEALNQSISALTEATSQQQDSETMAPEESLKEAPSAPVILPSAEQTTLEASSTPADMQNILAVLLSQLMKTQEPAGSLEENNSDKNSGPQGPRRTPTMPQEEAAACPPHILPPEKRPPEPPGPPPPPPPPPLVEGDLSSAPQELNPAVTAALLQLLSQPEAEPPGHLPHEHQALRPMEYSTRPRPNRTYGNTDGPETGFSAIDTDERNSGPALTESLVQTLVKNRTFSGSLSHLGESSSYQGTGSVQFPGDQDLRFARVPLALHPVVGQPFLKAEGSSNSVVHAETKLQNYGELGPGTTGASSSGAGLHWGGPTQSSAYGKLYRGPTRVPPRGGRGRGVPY
Sequence (O75909 whole entry partner, species assumed): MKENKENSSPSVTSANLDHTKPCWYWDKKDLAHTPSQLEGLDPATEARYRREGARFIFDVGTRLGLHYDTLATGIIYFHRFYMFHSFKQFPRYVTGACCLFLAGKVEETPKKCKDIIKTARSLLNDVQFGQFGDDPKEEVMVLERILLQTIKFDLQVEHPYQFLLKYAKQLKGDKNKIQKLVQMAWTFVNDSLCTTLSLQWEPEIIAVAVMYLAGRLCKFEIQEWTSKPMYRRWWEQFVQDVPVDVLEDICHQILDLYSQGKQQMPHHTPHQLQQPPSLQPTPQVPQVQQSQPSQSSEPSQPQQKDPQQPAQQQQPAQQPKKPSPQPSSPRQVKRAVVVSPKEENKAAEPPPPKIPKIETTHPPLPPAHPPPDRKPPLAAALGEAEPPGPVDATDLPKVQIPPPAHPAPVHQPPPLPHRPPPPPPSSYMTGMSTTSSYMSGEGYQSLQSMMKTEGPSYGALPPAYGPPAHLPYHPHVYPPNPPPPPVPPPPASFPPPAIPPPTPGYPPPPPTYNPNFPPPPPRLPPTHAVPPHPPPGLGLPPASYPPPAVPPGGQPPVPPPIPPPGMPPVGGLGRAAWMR
method.notes: Measurement of CDK12 inhibitory activity by binding assay (BODIPY-FL labeled AT-7519 high concentration conditions, 1320 nM)
conditions: inhibitory rate against CDK12 at 1 μM test compound, 1320 nM BODIPY-FL-labeled AT-7519, 8 nM CDK12/CycK
Method: (4) Measurement of CDK12 Inhibitory Activity by Binding Assay (BODIPY-FL Labeled AT-7519 High Concentration Conditions) His-tagged CDK12/CycK complex was blended with a binding assay buffer supplemented with BODIPY-FL labeled AT-7519, terbium-labeled streptavidin and biotin-labeled anti-histidine antibody. […] The fluorescence intensity derived from terbium and BODIPY-FL was measured using Envision. […] TR-FRET ratio=(fluorescence value of BODIPY-FL)÷(fluorescence value of terbium) […]
recorded.endpoint: inhibition at 1 µM (%)

• CCNC(=O)N(c1cnc(-c2cnn(C)c2)cn1)[C@H]1CC[C@H](Nc2ncc(C(F)(F)F)c(-c3ccn(C(F)F)n3)n2)CC1 = 91
• COc1ncc(-c2cnc(N(C(=O)NCC(C)(C)O)[C@H]3CC[C@H](Nc4ncc(C(F)(F)F)c(-c5ccn(C(F)F)n5)n4)CC3)cn2)cn1 = 94
• CCCC(=O)N(c1cnc(-c2cnn(C)c2)cn1)[C@H]1CC[C@H](Nc2ncc(C(F)(F)F)c(-c3cncc(S(C)(=O)=O)c3)n2)CC1 = 99
• COc1ncc(-c2cnc(N(C(=O)NCC(C)(F)F)[C@H]3CC[C@H](Nc4ncc(C(F)(F)F)c(-c5n[nH]cc5Cl)n4)CC3)cn2)cn1 = 86
• COc1ncc(-c2cnc(N(C(=O)OCCN3CCOCC3)[C@H]3CC[C@H](Nc4ncc(C(F)(F)F)c(-c5cncc(S(C)(=O)=O)c5)n4)CC3)cn2)cn1 = 99
• COc1ncc(-c2cnc(N(C(=O)CCC(F)F)[C@H]3CC[C@H](Nc4ncc(C(F)(F)F)c(-c5cncc(S(C)(=O)=O)c5)n4)CC3)cn2)cn1 = 106
• COc1ncc(-c2cnc(N(C(=O)NCC3(F)CC3)[C@H]3CC[C@H](Nc4ncc(C(F)(F)F)c(-c5n[nH]cc5Cl)n4)CC3)cn2)cn1 = 87
• Cn1cc(-c2cnc(N(C(=O)OCC(C)(C)O)[C@H]3CC[C@H](Nc4ncc(C(F)(F)F)c(-c5cncc(S(C)(=O)=O)c5)n4)CC3)cn2)cn1 = 103
• COCC(=O)N(c1cnc(-c2cnn(C)c2)cn1)[C@H]1CC[C@H](Nc2ncc(C(F)(F)F)c(-c3ccn(C(F)F)n3)n2)CC1 = 94
• COc1ncc(-c2cnc(N(C(=O)OCC(C)(C)O)[C@H]3CC[C@H](Nc4ncc(C(F)(F)F)c(-c5cncc(S(C)(=O)=O)c5)n4)CC3)cn2)cn1 = 106
• CCOCC(=O)N(c1cnc(-c2cnc(OC)nc2)cn1)[C@H]1CC[C@H](Nc2ncc(C(F)(F)F)c(-c3cncc(S(C)(=O)=O)c3)n2)CC1 = 109
• COc1ncc(-c2cnc(N(C(=O)NCC(F)F)[C@H]3CC[C@H](Nc4ncc(C(F)(F)F)c(OC5(C)COC5)n4)CC3)cn2)cn1 = 92
